# experimental system: T1, Human SIRPβ HIS (human, UniProt O00241 30-148, limits assumed)
# T1 construct: detected with streptavidin, so biotinylated; also called recombinant human SIRPβ1; human SIRPβ1 monomer
# T1 sequence (O00241 30-148 limits assumed): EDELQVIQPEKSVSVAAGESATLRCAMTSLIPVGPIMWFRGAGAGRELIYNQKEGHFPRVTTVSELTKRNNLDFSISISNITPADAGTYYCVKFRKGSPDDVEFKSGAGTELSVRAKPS
# assay details: MSD-SET, Fab monovalent
endpoint name: pKd
Note on units: pKd is unitless, being -log10 of a concentration expressed in mol/L.

## Task What value of measured pKd is listed for SB-8-14 Fab (Fab, V domains shown, Fab by papain digestion) VH: QVQLQESGPGLVKPSETLSLTCAVSGYSISPHYYWGWIRQPPGKGLEWIGSIYHSGHTYYNPSLKSRVTISVDTSKNQFSLKLSSVTAADTAVYYCARGGAMTPAGMDVWGQGTTVTVSS VL: EIVMTQSPGTLSLSPGERATLSCRASQSVSSSYLAWYQQKPGQAPRLLIYGASNRATGIPDRFSGSGSGTDFTLTISRLEPEDFAVYYCQQVYSSPYTFGGGTKVEIK ?
## Result 10.28

## Task What value of measured pKd is listed for SB-8-15 Fab (Fab, V domains shown, Fab by papain digestion) VH: QVQLQESGPGLVKPSETLSLTCAVSGYSISAHYYWGWIRQPPGKGLEWIGSIYQSGHTYYNPSLKSRVTISVDTSKNQFSLKLSSVTAADTAVYYCARGGAMTPAGMDVWGQGTTVTVSS VL: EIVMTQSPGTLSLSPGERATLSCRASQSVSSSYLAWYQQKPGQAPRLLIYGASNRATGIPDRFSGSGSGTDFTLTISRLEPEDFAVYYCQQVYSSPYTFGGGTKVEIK ?
## Result 10.32

## Task What value of measured pKd is listed for SB-8-16 Fab (Fab, V domains shown, Fab by papain digestion) VH: QVQLQESGPGLVKPSETLSLTCAVSGYSISAHYYWGWIRQPPGKGLEWIGSIFHSGHTYYNPSLKSRVTISVDTSKNQFSLKLSSVTAADTAVYYCARAGAMTPAGMDVWGQGTTVTVSS VL: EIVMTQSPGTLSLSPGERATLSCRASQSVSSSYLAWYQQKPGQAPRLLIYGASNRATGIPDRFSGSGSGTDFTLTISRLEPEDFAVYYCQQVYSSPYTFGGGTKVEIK ?
## Result 10.26

Origin of the recorded values: patent US20250026827A1
